# System: L1210
# MEASUREMENT_DESCRIPTION: The compound was tested in vitro for growth inhibitory activity against murine leukemia L1210 cells
# Format: functional, cell-based
# CONDITION_PARAMETERS: Mus musculus
pIC50: −log10 of the molar value.
Short version: pIC50 at least 5 is label 1, less is label 0.

Recorded results for 3 molecules are shown here.
Cc1c2ccncc2c(C)c2c1[nH]c1ccccc12 | label 1
CCN(CC)C[C@H]1CO[C@H]2c3nc4c5ccccc5n(C)c4nc3NC(=O)N2[C@@H](CN(CC)CC)O1 | label 0
CN(C)CCCN(C)C[C@H]1CO[C@H]2c3nc4c5ccccc5n(C)c4nc3N(C)C(=O)N2[C@@H](CN(C)CCCN(C)C)O1 | label 0

Q: Threshold query (pIC50 >= 5) on `CN1CCC(N(C)C[C@H]2CO[C@H]3c4nc5c6ccccc6n(C)c5nc4N(C)C(=O)N3[C@@H](CN(C)C3CCN(C)CC3)O2)CC1`
Result: label 1

Q: Threshold query (pIC50 >= 5) on `CN1CCN(C[C@H]2CO[C@H]3c4nc5c6ccccc6n(C)c5nc4N(C)C(=O)N3[C@@H](CN3CCN(C)CC3)O2)CC1`
Result: label 0

Q: Threshold query (pIC50 >= 5) on `CCN(CC)C[C@H]1CO[C@H]2c3nc4c5ccccc5n(C)c4nc3N(C)C(=O)N2[C@@H](CN(CC)CC)O1`
Result: label 1
